Cited source for all entries: ChEMBL document CHEMBL4382214

- target-system: DNA topoisomerase 1 (Homo sapiens, UniProt P11387)
- Sequence (P11387 whole entry): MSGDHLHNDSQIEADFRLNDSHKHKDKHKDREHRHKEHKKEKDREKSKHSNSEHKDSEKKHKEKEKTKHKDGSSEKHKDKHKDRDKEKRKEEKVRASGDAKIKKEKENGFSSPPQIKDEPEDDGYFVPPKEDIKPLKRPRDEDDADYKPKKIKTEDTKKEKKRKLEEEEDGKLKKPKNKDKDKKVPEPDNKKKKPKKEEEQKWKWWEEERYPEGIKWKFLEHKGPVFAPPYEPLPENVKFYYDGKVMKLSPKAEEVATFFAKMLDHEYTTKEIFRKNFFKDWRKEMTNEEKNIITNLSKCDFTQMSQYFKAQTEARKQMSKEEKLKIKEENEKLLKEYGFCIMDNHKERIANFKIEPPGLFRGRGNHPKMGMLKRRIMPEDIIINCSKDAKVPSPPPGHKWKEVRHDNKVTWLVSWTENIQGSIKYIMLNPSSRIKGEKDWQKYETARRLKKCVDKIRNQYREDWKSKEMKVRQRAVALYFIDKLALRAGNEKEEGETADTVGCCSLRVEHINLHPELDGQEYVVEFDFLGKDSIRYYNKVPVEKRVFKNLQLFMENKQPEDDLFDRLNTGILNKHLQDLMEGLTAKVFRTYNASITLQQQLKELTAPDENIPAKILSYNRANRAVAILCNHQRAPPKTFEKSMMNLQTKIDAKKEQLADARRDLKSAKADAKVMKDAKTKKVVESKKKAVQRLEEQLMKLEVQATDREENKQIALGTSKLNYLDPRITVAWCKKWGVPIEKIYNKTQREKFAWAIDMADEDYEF
- assay-comment: Inhibition of human Top1B expressed in Top1B deficient Saccharomyces cerevisiae EKY3 assessed as decrease in relaxation of supercoiled pSK DNA preincubated for 15 mins followed by DNA addition and measured after 5 mins by agarose gel electrophoresis
- setup-conditions: read-out: IC50
Note to self: use criterion met only for IC50 readings below 70 µM; a reading exactly at 70 µM still gets criterion not met.

Problem: Just wondering, is IC50 of Fc1ccc(-c2cc(-c3ccc(C(F)(F)F)cc3)nc3c(P(=S)(c4ccccc4)c4ccccc4)cccc23)cc1 below 70 µM?
Result: criterion met

Problem: Field: below-cutoff. Rule: recorded IC50 strictly less than 70 µM. Subject: Cc1ccc([C@H]2C[C@@H](c3ccc(F)cc3)Nc3c2cccc3P(c2ccccc2)c2ccccc2)cc1 (relative stereo)
Result: criterion met

Problem: Please let me know if COc1ccc([C@@H]2C[C@H](c3ccc(C)cc3)c3cccc(P(c4ccccc4)c4ccccc4)c3N2)cc1 (relative stereo) shows IC50 below 70 µM.
Result: criterion not met

Problem: IC50 strictly < 70 µM for this compound? Fc1ccc([C@H]2C[C@@H](c3ccccc3)Nc3c2cccc3P(c2ccccc2)c2ccccc2)cc1 (relative stereo)
Result: criterion met
